melting point by entry:

Completed entries (count: 4):
Given the entry Oc1ccc(Oc2ccc(OCC(O)CCc3cccnc3)cc2)cc1 (centres undefined) , report its measured melting point.
89 to 91 °C

Next up: CCCCCCCCOc1cnc(-c2ccc(CCCCCC(C)OC(C)=O)cc2)nc1 (single isomer, unassigned; (+))
73 to 74 °C

Another: CC(C)(C)c1cc(O)cc(C(C)(C)C)c1S(=O)c1nnc(-c2ccccn2)o1 (centres undefined)
172 to 173 °C

Entry to check: O=C(O)C1(CCc2ccc(Cl)cc2)CCN(CC2CC2)CC1
250 °C

More entries:
Using the record for CCCC(=O)C1c2cccc(OC(=O)C(C)(C)C)c2C(=O)c2c(OC(=O)C(C)(C)C)cccc21 , report its melting point.
120 °C

Also need CCCS(=O)(=O)c1cccnc1S(=O)(=O)NC(=O)Nc1nc(OC)cc(OC)n1 , thanks.
168 to 170 °C

Please do the same for CCc1cccc2c(O)cnnc12 as well.
160 to 161 °C

Try CC(CCCCN(C)c1ccccc1)NCC(O)c1ccc(O)c(C(N)=O)c1 (centres undefined) next.
157 to 160 °C

Let us now turn to C=CCN[C@H]1CC(C(=O)OCC)=C[C@@H](OC(CC)CC)[C@@H]1NC(C)=O
100 to 104 °C

====

Reported melting point values are given for each entry in this list.

Examples with their reported melting point follow.
Value lookup for melting point; key = CCCCCCNC(=O)C(C)N1CCN(c2ccccn2)CC1 (centres undefined)
131 to 132 °C

Now consider CCOC(=O)c1cnn(C)c1C(=O)Nc1ccn2nc(Br)nc2c1 .
177 to 180 °C

Also, O=C(Nc1ccc(-n2nc(C3CC3)cc2C2CC2)cc1)c1cccc(F)c1F please.
135 to 142 °C

# repeat for COc1cc(C)cc(OC)c1NC1C2CC3CC(C2)CC1C3 (centres undefined)
100 °C

Now give it for CCCCc1nc(Cl)c(C=O)n1Cc1ccc(-c2nnn(C(c3ccccc3)(c3ccccc3)c3ccccc3)n2)cc1 too.
154 to 157 °C

Now this one: CCC(CC)N(C)c1cc(C(=O)OC)ccc1N1C(=O)CCC1(CO)CO
142 to 143 °C

Also, O=C(Nc1cnccn1)Nc1cccc2c1C1C[C@@H](O)CCN1C2=O (some centres undefined) please.
250 °C

Now the molecule CCOc1c(C(F)(F)F)ncn(-c2c(Cl)cc(C(F)(F)F)cc2[N+](=O)[O-])c1=O
97.5 to 100 °C

Then there is this molecule:
Reported melting point for Cc1c(C(=O)Nc2ccc(N3CCCC3)c(C#N)c2)cnn1-c1ccc(Cl)cc1 : what is it?
205 °C

====

Endpoint label: melting point

Previously resolved entries follow.
melting point for O=S(=O)(F)CCCCCCCc1ccc(O)cc1 ?
47 to 51 °C

Now consider COc1ccc(OC)c2c1CCC(C#N)C2C#N (stereo unspecified) and answer again.
126 to 127 °C

And what about the compound CCCCCCCCCCCCCCCCOC(=O)CCCCCCCCCCCCC ?
54 to 56 °C

Same thing, different compound: N#Cc1cnn(-c2ccc(C(F)(F)F)cc2Cl)c1Br
127 °C

How about CCc1cc(F)cc2c1OCC(C)(C)CC2(O)c1ccccn1 (stereo unspecified) ?
100 °C

Moving on to another compound below.
So what does the record say about melting point for CCc1ncnc2cc(O)c(OC)cc12 ?
210 to 215 °C

====

Endpoint label: melting point

Which melting point is listed for CCOC(=O)c1oc2cc(-c3ccc(CO)cc3)ccc2c1C ?
135 to 136 °C

What do we get for Nc1ccc(C2=NCCO2)cc1 ?
163 to 165 °C

And for C=CC(=O)OCCCCCCCCOc1ccc(-c2ccc(OCCCCCCCCOC(=O)C=C)c(F)c2)cc1F ?
56.1 to 57.9 °C

Next:
Requested read-out: melting point. Entry: O=C1C=C(NC(=O)C(=O)c2cn(Cc3ccccc3[N+](=O)[O-])c3ccccc23)CO1
257 to 260 °C

Try CCC1(CC(=O)OC)OCC(O)c2c1[nH]c1ccccc21 (stereo unspecified) next.
86 to 90 °C

And the next one, C#CCN1C(=O)C(CC#N)C(CC)(CC)N=C1c1ccccc1 (stereo unspecified) ?
178 to 180 °C

Follow-up entry: COC(=O)[C@H](C)N(C(=O)[C@H](CC(C)C)NC(=O)OC(C)(C)C)c1ccc(Cl)c(Cl)c1
117 to 119 °C

Similarly, CC(C)(C)OC(=O)C=C(O)c1cccnc1Oc1ccc(F)cc1 ?
87 to 89 °C

Param item: Clc1ncccc1-c1cccnc1
92 to 93.5 °C

Let us now turn to COC(=O)C1CCC2C3CCC4=CC(O)CCC4(C)C3C(=O)CC12C (stereo unspecified)
121 to 125 °C

Now try O=C1Nc2cccc(Cl)c2C(=O)N2C[C@H](O)C[C@@H]12 .
284 to 287 °C

Next record, please: Nc1nc(Cc2cccs2)no1
132 to 133 °C

Okay, and CCOC(=O)CC(C(=O)c1ccc(OC)cc1)c1ccc(OC)c(F)c1 (stereo unspecified) ?
117 to 118 °C

====

Endpoint label: melting point

Before answering, review these 3 worked examples.
May I ask what melting point has been recorded for Cc1nc(N(C)C)sc1C(=O)c1ccc(Cl)c([N+](=O)[O-])c1 ?
165 to 169 °C

How about c1cnc(N2CCN(Cc3n[nH]c4ccccc34)CC2)nc1 ?
129 to 130 °C

Further, for CC(C)(C)OC(=O)[C@H]1CCCN1S(=O)(=O)c1ccc2c(Br)cnc(Cl)c2c1 ?
128 to 130 °C

New cases:
// melting point lookup, key: COC(=O)CCc1c(CCO)ccc2c1CCC(NS(=O)(=O)c1ccc(Cl)cc1)C2 (stereo not given)
132 °C

What do we get for CCCC(C(=O)OCC)N1CC(COc2cccc(Cl)c2)OC1=O (stereo not given) ?
43 to 49 °C

// query: CCC(=O)NS(=O)(=O)c1cccc(-c2cc(-c3nc(-c4ccc(C(F)(F)F)cc4)cc(C(F)(F)F)n3)ccn2)c1
144 °C

====

Catalogue of melting point values

Here are 5 compounds together with their reported answers.
Item O=[N+]([O-])c1cnc(Sc2nc(-c3ccc(Cl)cc3)n[nH]2)s1 has what recorded melting point?
181 to 184 °C

Next entry: CCn1c(=O)c2cc(C(=O)O)cn2c2ccccc21
314 to 316 °C

// same read-out, input: Cc1c(Cl)nnc(Cl)c1Cl
67.5 to 70 °C

What do you get for COc1ccc2ccc(NC(=O)c3cccs3)nc2n1 ?
220 °C

// query: CCOC(=O)/C=C/c1ccc(OCCC2OCCO2)cc1Oc1ncc(C(F)(F)F)cc1Cl
102 to 103 °C

Now look at this entry.
Could you share which melting point value was measured for CC(=O)OCCc1c(N)cc(OCc2ccccc2)c2ccccc12 ?
76 to 82 °C

====

Endpoint label: melting point

Guide cases for melting point, answers given:
For the molecule CC(C)(C)n1ncc(N)c(Cl)c1=O , what melting point is on record?
194 to 198 °C

Next molecule: Cc1cc(-n2ccnc2)c2cccc(OCc3c(Cl)ccc(S(=O)(=O)N4CCC[C@H]4C(=O)NCCCN4CCCC4)c3Cl)c2n1
120 °C

What would you report for CCOC(=O)CC(NC(=O)c1cccc(Cl)c1)C(=O)c1ccsc1 (stereo not given) ?
63 to 65 °C

Input O=[N+]([O-])c1cn2c(n1)O[C@@H](COc1ccc3nc(N4CCN(Cc5ccc(OC(F)(F)F)cc5)CC4)sc3c1)CC2
157 to 159 °C

Follow-up item: COC(=O)c1c(-c2ccncc2)[nH]c(-c2ccncc2)c1C
245 to 247 °C

Follow-up entry: CCCCCCN1CC(C(=O)OC)N(S(=O)(=O)c2ccc(-c3ccc(Br)cc3)cc2)CC1=O (stereo not given)
127 to 129 °C

Next entry: O=C(O)c1ccc(F)c(C(F)(F)F)c1F
108 to 110 °C

Same read-out for Nc1ccc2c(c1Br)C(=O)C1(CC1)O2 ?
167 to 170 °C

Can you check COc1cc(-c2nc3cnc(OC[C@H](C)NC(C)=O)cc3o2)cc(F)c1OCC1CC1 next?
163 °C

Another: Cc1ccc(-n2cccc2-c2ccc(S(N)(=O)=O)cc2)cc1
131 to 134 °C

***
Give its melting point value. Item: CCOC(=NC(=O)OC)NC(=O)Nc1ccc(Cl)cc1Cl
92 to 93 °C

And the next one, COc1cc2ncc(C(=O)NCc3ccc(Cl)cc3)c(O)c2cc1OC ?
184 °C

Also check Cc1sc(-c2ccccc2)nc1COc1cc(CO)on1
84 to 85 °C

Similarly, CC(Oc1ccc2nc(NC(=O)NCCN3CCOCC3)sc2c1)c1c(Cl)ccc(F)c1Cl (stereo not given) ?
110 °C

Can you handle CC(C)c1ccc2nc3ccc(C(=O)O)cn3c(=O)c2c1 next?
280 to 287 °C

Also, CC(C)Cn1c(=O)n(C)c(=O)c2c(C#CCCO)n(Cc3cccc4ccccc34)cc21 please.
170 to 171 °C

Next record, please: O=c1oc2ccc(-c3ccc(F)cc3F)cc2c(=O)n1-c1cc(F)ccc1F
144 to 145 °C

Now consider CNC(=S)N(C)NC(=O)c1cccc(F)c1 and answer again.
202 to 205 °C

Another molecule to look at: CC(C)n1c2c(c(-c3ccccc3)nc1=O)CCCCCCCCCC2
173 to 176 °C

CC1(C)COC(c2ccccc2-c2ccc(C(=O)O)cc2)=N1 ?
190 to 193 °C
